Catalogue of pIC50 readings, one per entry.
# TGT: CyclinB1/CDK1 (Homo sapiens, UniProt P14635)
# Construct: purchased Eurofins, discovery 14-450
# EXPERIMENT DESCRIPTION: Fluorescence Polarization (FP) competitive binding assay, Cyclin B1/Cdk1;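 note: fluorescence polarization read after equilibration at room temperature, with IC50 taken from serially diluted dose-response curves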
# SETTINGS: 10 nM Cyclin B1/Cdk1, 2 nM FAM probe; average of 2-3 independent experiments; read-out: Cyclin B FP IC50
*1 amine or outer side, *2 acyl side, *3 side chain or, on linkers, in order; H or OH if unused. Where a SMILES comes first, the peptide text is derived from it. Bridges are numbered along the chain shown (N, C = ends). [ ]: non-standard residue; d: D form. The star is where a group is joined. X103 = CN1CCC(Oc2ccc(-c3ccc(Cl)cc3C[C@@H](C(=O)[*:2])N(C)[*:1])cc2)CC1; X42 = CN([C@@H](Cc1cc(Cl)ccc1-c1cnn(S(=O)(=O)C2CC2)c1)C(=O)[*:2])[*:1]; X95 = CN1CCCC[C@H]1c1ccc(-c2ccc(Cl)cc2C[C@@H](C(=O)[*:2])N(C)[*:1])cc1; X59 = CC(c1ccc(-c2ccc(Cl)cc2C[C@@H](C(=O)[*:2])N(C)[*:1])cc1)N1CCOCC1; NMePhe(5-Cl,2-O(2-Pym)) = CN[C@@H](Cc1cc(Cl)ccc1Oc1ncccn1)C(=O)O; X49 = CN1CCc2ccc(-c3ccc(Cl)cc3C[C@@H](C(=O)[*:2])N(C)[*:1])cc2C1; NMehhhLys(Me) = CN([C@@H](CCCCCCCN(C)[*:3])C(=O)[*:2])[*:1]; X131 = CN([C@@H](Cc1cc(F)cnc1-c1cnn(C)c1)C(=O)[*:2])[*:1]; X22 = CN([C@@H](Cc1cc(Cl)ccc1-c1cnn(C)c1)C(=O)[*:2])[*:1]; NMe(hhhLys) = CN([C@@H](CCCCCCCN[*:3])C(=O)[*:2])[*:1]; X152 = CN([C@@H](Cc1cc(Cl)ccc1OC1CC1)C(=O)[*:2])[*:1]; Cyclobutanecarbonyl(1-CF3) = O=C(C1(C(F)(F)F)CCC1)*; cBuCO(3,3-F2-1-CF3) = O=C(C1(C(F)(F)F)CC(F)(F)C1)*; Pro(trans-4-F) = O=C(O)[C@@H]1C[C@@H](F)CN1; Gly(cPr) = N[C@H](C(=O)O)C1CC1
In simple prose, pIC50 is minus the logarithm base ten of a concentration in moles per litre.

COMPOUND	pIC50
CC(C)C[C@@H]1NC(=O)[C@@H](N(C)C(=O)[C@@H](NC(=O)[C@@H]2C[C@@H](F)CN2C(=O)C2(C(F)(F)F)CC(F)(F)C2)C2CC2)CCCCCCCN(C)C(=O)[C@H](Cc2cc(Cl)ccc2-c2ccc(C(C)N3CCOCC3)cc2)N(C)C1=O (stereo partly drawn) [Example 403] ({cBuCO(3,3-F2-1-CF3)}-[Pro(trans-4-F)][Gly(cPr)][NMehhhLys(Me)]L[X59]; lactam 3-C)	7.70
CC(C)C[C@@H]1NC(=O)[C@@H](N(C)C(=O)[C@@H](NC(=O)[C@@H]2C[C@@H](F)CN2C(=O)C2(C(F)(F)F)CC(F)(F)C2)C2CC2)CCCCCCCN(C)C(=O)[C@H](Cc2cc(Cl)ccc2-c2ccc(OC3CCN(C)CC3)cc2)N(C)C1=O [Example 371] ({cBuCO(3,3-F2-1-CF3)}-[Pro(trans-4-F)][Gly(cPr)][NMehhhLys(Me)]L[X103]; lactam 3-C)	7.70
CC(C)C[C@@H]1NC(=O)[C@@H](N(C)C(=O)[C@@H](NC(=O)[C@@H]2C[C@@H](F)CN2C(=O)C2(C(F)(F)F)CC(F)(F)C2)C2CC2)CCCCCCCN(C)C(=O)[C@H](Cc2cc(Cl)ccc2-c2cnn(S(=O)(=O)C3CC3)c2)N(C)C1=O [Example 254] ({cBuCO(3,3-F2-1-CF3)}-[Pro(trans-4-F)][Gly(cPr)][NMehhhLys(Me)]L[X42]; lactam 3-C)	7.70
CC(C)C[C@@H]1NC(=O)[C@@H](N(C)C(=O)[C@@H](NC(=O)[C@@H]2C[C@@H](F)CN2C(=O)C2(C(F)(F)F)CCC2)C2CC2)CCCCCCCNC(=O)[C@H](Cc2cc(Cl)ccc2Oc2ncccn2)N(C)C1=O [Example 158] ({Cyclobutanecarbonyl(1-CF3)}-[Pro(trans-4-F)][Gly(cPr)][NMe(hhhLys)]L[NMePhe(5-Cl,2-O(2-Pym))]; lactam 3-C)	7.70
CC(C)C[C@@H]1NC(=O)[C@@H](N(C)C(=O)[C@@H](NC(=O)[C@@H]2C[C@@H](F)CN2C(=O)C2(C(F)(F)F)CCC2)C2CC2)CC=CCCCCNC(=O)[C@H](Cc2cc(Cl)cnc2OC(C)C)N(C)C1=O (single isomer, unassigned) [Example 136-P2]	7.70
CC(C)C[C@@H]1NC(=O)[C@@H](N(C)C(=O)[C@@H](NC(=O)[C@@H]2C[C@@H](F)CN2C(=O)C2(C(F)(F)F)CC(F)(F)C2)C2CC2)CCCCCCCN(C)C(=O)[C@H](Cc2cc(Cl)ccc2-c2ccc3c(c2)CN(C)CC3)N(C)C1=O [Example 406] ({cBuCO(3,3-F2-1-CF3)}-[Pro(trans-4-F)][Gly(cPr)][NMehhhLys(Me)]L[X49]; lactam 3-C)	7.70
CC(C)C[C@@H]1NC(=O)[C@@H](N(C)C(=O)[C@@H](NC(=O)[C@@H]2C[C@@H](F)CN2C(=O)C2(C(F)(F)F)CCC2)C2CC2)CC=CCCCCNC(=O)[C@H](Cc2cc(Cl)ccc2Oc2ncccn2)N(C)C1=O (single isomer, unassigned) [Example 156-P1]	7.70
CC(C)C[C@@H]1NC(=O)[C@@H](N(C)C(=O)[C@@H](NC(=O)[C@@H]2C[C@@H](F)CN2C(=O)C2(C(F)(F)F)CC(F)(F)C2)C2CC2)CCCCCCCNC(=O)[C@H](Cc2cc(Cl)ccc2OC2CC2)N(C)C1=O [Example 311] ({cBuCO(3,3-F2-1-CF3)}-[Pro(trans-4-F)][Gly(cPr)][NMe(hhhLys)]L[X152]; lactam 3-C)	7.70
CC(C)C[C@@H]1NC(=O)[C@@H](N(C)C(=O)[C@@H](NC(=O)[C@@H]2C[C@@H](F)CN2C(=O)C2(C(F)(F)F)CC(F)(F)C2)C2CC2)CC=CCCCCNC(=O)[C@H](Cc2cc(Cl)ccc2Cl)N(C)C1=O (single isomer, unassigned) [Example 6-P2]	7.70
CC(C)C[C@@H]1NC(=O)[C@@H](N(C)C(=O)[C@@H](NC(=O)[C@@H]2C[C@@H](F)CN2C(=O)C2(C(F)(F)F)CC(F)(F)C2)C2CC2)CCCCCCCN(C)C(=O)[C@H](Cc2cc(Cl)ccc2-c2ccc([C@@H]3CCCCN3C)cc2)N(C)C1=O [Example 417] ({cBuCO(3,3-F2-1-CF3)}-[Pro(trans-4-F)][Gly(cPr)][NMehhhLys(Me)]L[X95]; lactam 3-C)	7.70

Give the measured pIC50 of CC(C)C[C@@H]1NC(=O)[C@@H](N(C)C(=O)[C@@H](NC(=O)[C@@H]2CCCN2C(=O)C2(C(F)(F)F)CC(F)(F)C2)C2CC2)CCCCCCCN(C)C(=O)[C@H](Cc2cc(Cl)ccc2-c2cnn(C)c2)N(C)C1=O [Example 77] ({cBuCO(3,3-F2-1-CF3)}-P[Gly(cPr)][NMehhhLys(Me)]L[X22]; lactam 3-C) .
7.70

Similarly, CC(C)C[C@@H]1NC(=O)[C@@H](N(C)C(=O)[C@@H](NC(=O)[C@@H]2C[C@@H](F)CN2C(=O)C2(C(F)(F)F)CC(F)(F)C2)C2CC2)CCCCCCCN(C)C(=O)[C@H](Cc2cc(F)cnc2-c2cnn(C)c2)N(C)C1=O [Example 244] ({cBuCO(3,3-F2-1-CF3)}-[Pro(trans-4-F)][Gly(cPr)][NMehhhLys(Me)]L[X131]; lactam 3-C) ?
7.70
